# Organism: Homo sapiens
# ASSAY_PROTOCOL: Selectivity ratio of Ki for human NTS1 to Ki for human NTS2
OBSERVED_PROPERTY: Ratio Ki

{"SUBSTANCE": "H-RRAYIL-OH", "OBSERVED_PROPERTY": "Ratio Ki", "MEASURED_RESULT": 0.41}
{"SUBSTANCE": "H-RRPYAL-OH", "OBSERVED_PROPERTY": "Ratio Ki", "MEASURED_RESULT": 1.6}
{"SUBSTANCE": "H-RRPAIL-OH", "OBSERVED_PROPERTY": "Ratio Ki", "MEASURED_RESULT": 16}
{"SUBSTANCE": "H-ARPYIL-OH", "OBSERVED_PROPERTY": "Ratio Ki", "MEASURED_RESULT": 0.082}
{"SUBSTANCE": "H-RAPYIL-OH", "OBSERVED_PROPERTY": "Ratio Ki", "MEASURED_RESULT": 0.46}
